Some binders, each annotated with its measured koff.
Target: T1, human Gal10-His (human, UniProt Q05315 2-142, limits assumed)
T1 construct: also called hGal10-His; human Gal10-His tagged; not shown: His tag
T1 sequence: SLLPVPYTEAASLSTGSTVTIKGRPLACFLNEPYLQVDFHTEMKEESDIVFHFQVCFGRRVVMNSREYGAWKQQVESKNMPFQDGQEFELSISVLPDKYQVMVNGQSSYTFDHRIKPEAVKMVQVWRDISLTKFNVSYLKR
Assay: SPR Biacore 3000, purified hFab (2 conc.) on Gal10-His captured by anti-His CM5

binder | unitName | koff
g7B07_N53A (human Fab) (Fab, V domains shown, VH assembled by inference as for g7B07; Human Fab backbone; also called g7B07_N53A (mean)) VH: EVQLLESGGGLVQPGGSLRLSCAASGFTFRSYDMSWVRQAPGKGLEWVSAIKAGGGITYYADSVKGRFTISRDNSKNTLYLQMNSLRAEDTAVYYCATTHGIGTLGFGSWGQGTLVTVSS VL: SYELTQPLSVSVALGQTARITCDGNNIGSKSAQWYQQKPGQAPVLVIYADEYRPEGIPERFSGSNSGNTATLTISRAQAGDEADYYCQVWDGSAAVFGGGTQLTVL | s⁻¹ | 0.078
g23H09 (Fab) (Fab, V domains shown, same VH/VL) VH: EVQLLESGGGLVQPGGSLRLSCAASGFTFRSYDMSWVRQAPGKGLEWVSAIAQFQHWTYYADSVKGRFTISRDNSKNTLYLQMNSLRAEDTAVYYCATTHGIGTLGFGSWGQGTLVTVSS VL: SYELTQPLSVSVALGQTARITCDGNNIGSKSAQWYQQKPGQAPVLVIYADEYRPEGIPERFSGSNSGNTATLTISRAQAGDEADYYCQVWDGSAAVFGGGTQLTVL | s⁻¹ | 0.0025
g24F02 (human Fab) (Fab, V domains shown, Human Fab backbone (human CH1, human lambda CL); also called germlined 24F02) VH: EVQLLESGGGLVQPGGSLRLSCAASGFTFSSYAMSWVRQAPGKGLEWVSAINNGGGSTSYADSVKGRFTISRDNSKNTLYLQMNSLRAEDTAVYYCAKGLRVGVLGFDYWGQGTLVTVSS VL: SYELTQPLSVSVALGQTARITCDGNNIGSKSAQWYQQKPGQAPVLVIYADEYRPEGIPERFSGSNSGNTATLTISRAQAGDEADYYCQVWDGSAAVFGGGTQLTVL | s⁻¹ | 0.0016
g24F02_N53A (human Fab) (Fab, V domains shown, Human Fab backbone: human CH1 and human lambda constant domain (pUPEX vectors); also called g24F02_N53A_2W) VH: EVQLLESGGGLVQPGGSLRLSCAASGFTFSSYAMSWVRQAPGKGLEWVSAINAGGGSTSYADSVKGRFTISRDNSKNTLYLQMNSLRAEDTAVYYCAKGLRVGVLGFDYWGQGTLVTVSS VL: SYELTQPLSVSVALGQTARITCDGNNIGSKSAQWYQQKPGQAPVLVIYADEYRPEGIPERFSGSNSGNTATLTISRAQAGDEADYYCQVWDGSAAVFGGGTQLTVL | s⁻¹ | 0.0016
g20H09 (Fab) (Fab, V domains shown, same VH/VL) VH: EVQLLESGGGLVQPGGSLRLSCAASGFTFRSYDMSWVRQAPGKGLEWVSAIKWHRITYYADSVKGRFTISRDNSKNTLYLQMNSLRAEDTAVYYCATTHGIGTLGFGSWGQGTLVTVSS VL: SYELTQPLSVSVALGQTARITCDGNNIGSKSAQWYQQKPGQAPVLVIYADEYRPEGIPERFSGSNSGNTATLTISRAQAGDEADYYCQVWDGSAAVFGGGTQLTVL | s⁻¹ | 0.015
g7B07 (human Fab) (Fab, V domains shown, Human Fab backbone; their format is not certain; also called g7B07-hFab; germlined 7B07) VH: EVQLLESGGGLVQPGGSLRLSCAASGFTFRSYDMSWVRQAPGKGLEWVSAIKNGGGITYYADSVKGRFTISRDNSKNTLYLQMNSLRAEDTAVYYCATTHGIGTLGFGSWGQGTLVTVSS VL: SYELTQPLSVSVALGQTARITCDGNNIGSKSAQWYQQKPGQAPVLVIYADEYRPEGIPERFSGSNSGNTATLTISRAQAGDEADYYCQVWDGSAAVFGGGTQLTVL | s⁻¹ | 0.0047
